The origin of these recorded values is PubChem BioAssay AID504327.

molecular target: Histone acetyltransferase KAT2A (Homo sapiens); assay: qHTS Assay for Inhibitors of GCN5L2; conditions: GCN5L2 HAT assay, ThioGlo1 CoA-SH fluorescence; series mostly up to 58.9 µM
In all, about 390,000 compounds went through this assay and about 820 (0.21%) were called active. Another 3% or so got no clear call; they are omitted. Calls follow the shape of the dose curve; as a rule, active = well fitted inhibition curve with a large enough effect; inconclusive = small, poorly fitted or top-dose-only effect, or another doubt; inactive = no such curve, though single readings can be large or run the other way. The sample holds actives, similar compounds and a random draw of the others, so the mix is not that of the screen. Non-standard residues stand in square brackets, D forms with d. Residues, ends and D or L forms follow the SMILES beside them. Groups on a side chain read outwards from the residue. *: point of attachment. X1 = CCC(C)C(N)C1=NC(C(=O)*)CS1; Orn = NCCC[CH](N)C(=O)O
Outcomes you can answer with include only these: true (1) for active, false (0) for inactive

*Q* Dear colleague, could you share the recorded outcome for O=c1cc(-c2ccccc2)n2c(SCc3ccccc3)nnc2[nH]1 when you have a moment?
*A* false (0)

*Q* Dear colleague, could you share the recorded outcome for O=C(Nc1c(C(=O)N2CCCCC2)cnn1-c1ccccc1)c1ccco1 when you have a moment?
*A* true (1)

*Q* Dear colleague, could you share the recorded outcome for COc1cccc(-c2cc(NCCc3c[nH]c4ccc(OC)cc34)ncn2)c1 when you have a moment?
*A* false (0)

*Q* Dear colleague, could you share the recorded outcome for CC1=C/C(=N\OS(=O)(=O)c2ccccc2)C=CC1=O when you have a moment?
*A* true (1)

*Q* Dear colleague, could you share the recorded outcome for O=c1[nH]c2ccccc2n2c(-c3ccccc3)nnc12 when you have a moment?
*A* true (1)

*Q* Dear colleague, could you share the recorded outcome for C=C1C(=CC=C2CCC[C@@]3(C)[C@@H]2CC[C@H]3[C@H](C)CCCC(C)C)C[C@@H](O)C[C@@H]1O when you have a moment?
*A* false (0)

*Q* Dear colleague, could you share the recorded outcome for CCN(Cc1ccncc1)C(=O)[C@@H](CO)c1ccccc1 when you have a moment?
*A* false (0)

*Q* Dear colleague, could you share the recorded outcome for Fc1ccc(Cl)cc1-c1nc(Nc2ccncc2)c2nccnc2n1 when you have a moment?
*A* false (0)

*Q* Dear colleague, could you share the recorded outcome for OCC(CO)NC1C[C@](O)(CO)[C@@H](O)[C@H](O)[C@H]1O (some centres undefined) when you have a moment?
*A* false (0)

*Q* Dear colleague, could you share the recorded outcome for Cc1ccccc1CSCCNC(=O)c1ccc(Cl)c(S(=O)(=O)N2CCOCC2)c1 when you have a moment?
*A* false (0)

*Q* Dear colleague, could you share the recorded outcome for CC(C)Cn1c(=O)c2ccccc2n2c(-c3cccc(Cl)c3)nnc12 when you have a moment?
*A* false (0)

*Q* Dear colleague, could you share the recorded outcome for O=C(c1cccnc1)N(c1cc2sc(=O)oc2c2ccccc12)S(=O)(=O)c1ccccc1 when you have a moment?
*A* true (1)

*Q* Dear colleague, could you share the recorded outcome for N#Cc1ccc(CN2CCCC3(CCN(C(=O)c4ccco4)CC3)C2)cc1 when you have a moment?
*A* false (0)

*Q* Dear colleague, could you share the recorded outcome for CC1C(O)CC2C(C(=O)O)=CO[C@@H](O[C@H]3OC(CO)C(O)C(O)C3O)C21 (some centres undefined) when you have a moment?
*A* false (0)

*Q* Dear colleague, could you share the recorded outcome for CCC(C)C(N)C1=NC(C(=O)NC(CC(C)C)C(=O)NC(CCC(=O)O)C(=O)NC(C(=O)NCCCCC2NC(=O)C(CC(N)=O)NC(=O)C(CC(=O)O)NC(=O)C(Cc3cnc[nH]3)NC(=O)C(Cc3ccccc3)NC(=O)C(C(C)CC)NC(=O)C(CCCN)NC2=O)C(C)CC)CS1 (stereo not drawn) (cyclo(DNK([Ile-Glu-Leu-X1])[Orn]IFH); configuration not given here) when you have a moment?
*A* false (0)

*Q* Dear colleague, could you share the recorded outcome for Cc1ccccc1CSCCNC(=O)c1ccc(N(C)S(=O)(=O)c2ccccc2)cc1 when you have a moment?
*A* true (1)

*Q* Dear colleague, could you share the recorded outcome for COc1c2c(cc3occ(-c4ccc5c(c4)OCO5)c(=O)c13)OC(C)(C)C=C2 when you have a moment?
*A* false (0)

*Q* Dear colleague, could you share the recorded outcome for CO[C@@]12[C@@H](COC(N)=O)C3=C(C(=O)C(C)=C(N)C3=O)N1C[C@@H]1N[C@@H]12 when you have a moment?
*A* false (0)

*Q* Dear colleague, could you share the recorded outcome for CC(=O)N(c1ccc2oc(=O)sc2c1)S(=O)(=O)c1ccc(C)cc1 when you have a moment?
*A* false (0)
